System: HUVECs
experimental details: ALAMARBLUE proliferation assay in HUVECs
Assay type: cell-based, human
condition label: Homo sapiens, HUVEC, 48 h, 50% growth inhibitory concentration, alamarBlue
assay readout: GI50 (µM)
State just the number; it will be interpreted in µM.

query: // fetch GI50; item: COc1cc2c(c(OC)c1OC)C(=O)/C(=C/c1ccc(O)c(F)c1)CO2 [Compound 11p] ; system: HUVECs
result: 9

query: For HUVECs, give the measured GI50 of the entry COc1cc2c(c(OC)c1OC)C(=O)/C(=C/c1cccc(Cl)c1Cl)CO2 [Compound 11v]
result: 10.4

----------
Test system: HUVECs
experimental details: ALAMARBLUE proliferation assay in HUVECs
Format: cell-based, human
condition label: Homo sapiens, HUVEC, 48 h, 50% growth inhibitory concentration, alamarBlue
assay readout: GI50 (µM)
Respond with the bare value in µM.

query: Supply reported GI50 belonging to this compound: COc1ccc(/C=C2\COc3cc(OC)c(OC)c(O)c3C2=O)cc1O [Compound 11q]
result: 5.4

query: Look up and report measured GI50 for this entry: `COc1ccc(/C=C2\CCOc3cc(OC)c(OC)c(OC)c3C2=O)cc1O`
result: 30

query: Let me know recorded GI50 for COc1cc(OC)c2c(c1)OCC(Cc1ccc(OC)c(O)c1)C2=O (stereo not drawn) [Compound 15b] , thanks.
result: 6.8

query: Return the recorded GI50 value; entry: COc1cc2c(c(OC)c1OC)C(=O)C(Cc1ccc(O)c(O)c1)CO2 (stereo not drawn)
result: 77

query: Please indicate GI50 recorded for COC(=O)c1cc(/C=C2\COc3cc(OC)c(OC)c(OC)c3C2=O)ccc1O [Compound 11o]
result: 2

query: Supply measured GI50 of COc1cc(/C=C2\COc3cc(OC)c(OC)c(OC)c3C2=O)ccc1O [Compound 11e] in your reply.
result: 6

query: Identify measured GI50 associated with COc1cc(/C=C2\COc3cc(OC)c(OC)c(OC)c3C2=O)ccc1OCc1ccccc1 [Compound 11d]
result: 114

query: Give recorded GI50. COc1cc(OC)c2c(c1)OC/C(=C\c1ccc(OC)c(O)c1)C2=O [Compound 15a]
result: 17.7

query: Please indicate GI50 recorded for `COc1ccc(CN2CCc3cc(OC)c(OC)c(OC)c3C2=O)cc1OCc1ccccc1`
result: 71

query: Report measured GI50; entry is COc1ccc(/C=C2\COc3cc(OC)c(OC)c(OC)c3C2=O)c(OC)c1OC [Compound 11w]
result: 45

query: Please look at this compound and report its GI50: COc1ccc(CC2COc3cc(OC)c(OC)c(O)c3C2=O)cc1O (stereo not drawn)
result: 44

query: Write down GI50 measured for item COc1cc2c(c(OC)c1OC)C(=O)/C(=C/c1ccccc1[N+](=O)[O-])CO2 [Compound 11x]
result: 9

----------
Tested on: HUVECs
experimental details: ALAMARBLUE proliferation assay in HUVECs
Assay type: cell-based, human
condition label: Homo sapiens, HUVEC, 48 h, 50% growth inhibitory concentration, alamarBlue
What GI50 was measured for each of the following?

query: State its GI50 for this compound: COc1ccc(CC2(CO)COc3cc(OC)c(OC)c(OC)c3C2=O)cc1O (stereo not drawn)
result: > 100 µM

query: Please list GI50 recorded for the compound COc1ccc(CC2COc3cc(OC)c(O)c(O)c3C2=O)cc1OC(=O)c1ccccc1 (stereo not drawn)
result: > 100 µM

query: Assign GI50 to the following record: `COc1cc(O)c(C(=O)/C=C/c2ccccc2)c(OC)c1OC`
result: > 100 µM

query: Specify reported GI50 for the compound shown: `COc1c(O)cc2occ(Cc3ccccc3)c(=O)c2c1O`
result: > 100 µM

query: Tell me GI50 reported for `COc1ccc(Cc2coc3cc(OC)c(OC)c(OC)c3c2=O)cc1O`
result: > 100 µM

query: Give recorded GI50. COc1ccc(/C=C2\COc3cc(OC)c(OC)c(OC)c3C2=O)cc1OCC(=O)O [Compound 11m]
result: > 500 µM
